Numbers sourced from patent US20050032873A1.

# SUBJECT_OF_TEST: cloned human 5-HT1A receptors (Homo sapiens, UniProt P08908)
# Construct: expressed in transfected cells
# Sequence (P08908 whole entry): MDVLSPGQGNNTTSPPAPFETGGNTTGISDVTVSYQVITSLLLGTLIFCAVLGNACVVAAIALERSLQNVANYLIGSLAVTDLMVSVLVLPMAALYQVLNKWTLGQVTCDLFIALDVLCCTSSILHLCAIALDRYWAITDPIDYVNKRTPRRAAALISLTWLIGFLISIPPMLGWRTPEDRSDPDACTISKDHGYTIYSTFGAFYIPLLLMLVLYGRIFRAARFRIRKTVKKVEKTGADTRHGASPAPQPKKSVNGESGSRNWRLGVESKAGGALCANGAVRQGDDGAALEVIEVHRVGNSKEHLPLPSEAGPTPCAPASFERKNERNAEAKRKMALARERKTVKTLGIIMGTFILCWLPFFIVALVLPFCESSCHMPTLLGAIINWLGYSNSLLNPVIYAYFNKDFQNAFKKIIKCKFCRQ
# PROCEDURE_TEXT: 35S-GTPγS binding assay, 5-HT1A function
# Type: biochemical
# COND: antagonist potency, reversal of 8-OH-DPAT; read-out: 5-HT1A Function GTPγS IC50
pIC50: −log10 of the molar value.
EXPERIMENTAL_READOUT: pIC50

1. CCCN(CCCc1c[nH]c2ccc(F)cc12)C1CCc2c(F)ccc(OC)c2C1 (single isomer, unassigned; (-)) [Compound 51b]	7.32
2. NC(=O)c1ccc(F)c2c1CC(N(CCCc1c[nH]c3c(F)cc(F)cc13)C1CCC1)CO2 (single isomer, unassigned; (-)) [Compound 9a]	6.68
3. COc1cccc2c(CCCCN(C3CCC3)C3COc4c(F)ccc(C(N)=O)c4C3)coc12 (stereo not shown) [Compound 171]	6.39
4. NC(=O)c1ccc(F)c2c1CC(NCCc1c[nH]c3ccc(F)cc13)CO2 (stereo not shown) [Compound 75]	5.67
5. CCN(CC1CCc2[nH]c3ccc(F)cc3c2C1)[C@H]1COc2c(F)ccc(C(N)=O)c2C1 (single isomer, unassigned; (-)) [Compound 176a]	5.37
6. CNC(=O)c1ccc(F)c2c1C[C@H](N(CCCCc1c[nH]c3ccc(F)cc13)C1CCC1)CO2 [Compound 145a]	5.26
7. COc1cccc2c1CC(N(CCCc1c[nH]c3ccc(C#N)cc13)C1CCC1)CO2 (stereo not shown) [Compound 46]	6.66
8. NC(=O)c1ccc(F)c2c1CC(N(CCc1c[nH]c3ccc(F)cc13)CC1CC1)CO2 (stereo not shown) [Compound 78]	6.42
9. COc1cccc2c(CCN(C3CCC3)C3COc4c(F)ccc(C(N)=O)c4C3)coc12 (stereo not shown) [Compound 159]	5.30
10. NC(=O)c1ccc(F)c2c1C[C@@H](N(CC1CC1)CC1CCc3[nH]c4ccc(F)cc4c3C1)CO2 (single isomer, unassigned; (-)) [Compound 178a]	5.08
11. O=C(NC1CCC1)c1ccc(F)c2c1CC(N(CCCc1c[nH]c3ccc(F)cc13)C1CCC1)CO2 (stereo not shown) [Compound 65]	7.04
12. NC(=O)c1ccc(F)c2c1CC(N(CCCCn1ccc3c(F)cccc31)CC1CC1)CO2 (stereo not shown) [Compound 203]	5.22
13. NC(=O)c1ccc(F)c2c1CC(N(CC1CCc3[nH]c4ccc(F)cc4c3C1)C1CCC1)CO2 (single isomer, unassigned; (-)) [Compound 174d]	5.32
14. NC(=O)c1cccc2c1CC(N(CCCc1c[nH]c3ccc(F)cc13)C1CCC1)CO2 (stereo not shown) [Compound 134]	6.73
15. CCNC(=O)c1ccc(F)c2c1CC(N(CCCc1c[nH]c3ccc(F)cc13)C1CCC1)CO2 (stereo not shown) [Compound 60]	5.85
16. NC(=O)c1ccc(F)c2c1CC(NCCCCc1c[nH]c3ccc(F)cc13)CO2 (stereo not shown) [Compound 79]	5.58
17. N#Cc1ccc2[nH]cc(CCCN(CC3CC3)[C@H]3COc4c(F)ccc(C(N)=O)c4C3)c2c1 [Compound 98b]	6.34
18. NC(=O)c1ccc(F)c2c1CC(N(CC1CCc3[nH]c4ccc(F)cc4c3C1)C1CCC1)CO2 (single isomer, unassigned; (-)) [Compound 174a]	5.10
19. CCN(C(C)CCc1c[nH]c2ccc(F)cc12)C1COc2c(F)ccc(C(N)=O)c2C1 (single isomer, unassigned; (-)) [Compound 16a]	5.52
20. CCN(CCCc1c[nH]c2ccc(F)cc12)C1COc2c(F)ccc(C(N)=O)c2C1 (single isomer, unassigned; (+)) [Compound 3b]	6.18
21. CC(C1CC1)N(CCCc1c[nH]c2ccc(F)cc12)C1COc2c(F)ccc(C(N)=O)c2C1 (stereo not shown) [Compound 6]	5.32
22. NC(=O)c1ccc(F)c2c1CC(N(CCCc1c[nH]c3c(F)cc(F)cc13)C1CCC1)CO2 (single isomer, unassigned; (+)) [Compound 9b]	5.22
23. O=C(NCC1CC1)c1ccc(F)c2c1CC(N(CCCc1c[nH]c3ccc(F)cc13)C1CCC1)CO2 (stereo not shown) [Compound 68]	5.89
24. CCCCCN(CCCc1c[nH]c2ccc(F)cc12)C1COc2c(F)ccc(C(N)=O)c2C1 (stereo not shown) [Compound 71]	5.10
25. CCCN(C(C)CCc1c[nH]c2ccc(F)cc12)C1COc2c(F)ccc(C(N)=O)c2C1 (single isomer, unassigned) [Compound 12c]	5.52
26. CCCN(C(C)CCCc1c[nH]c2ccc(F)cc12)C1COc2c(F)ccc(C(N)=O)c2C1 (single isomer, unassigned; (-)) [Compound 14b]	6.32
27. CCN(CCCCn1ccc2cccc(F)c21)C1COc2c(F)ccc(C(N)=O)c2C1 (stereo not shown) [Compound 189]	6.63
28. CC(CCc1c[nH]c2c(F)cc(F)cc12)N(CC1CC1)C1COc2c(F)ccc(C(N)=O)c2C1 (single isomer, unassigned) [Compound 154d]	5.15

* * *

# SUBJECT_OF_TEST: 5-HT1A receptor (Homo sapiens, UniProt P08908)
# Sequence (P08908 whole entry): as the sequence (P08908 whole entry) above
# PROCEDURE_TEXT: cAMP accumulation assay, 5-HT1A function
# COND: cells marked EC50 (agonist)
pEC50: −log10 of the molar value.
EXPERIMENTAL_READOUT: pEC50

1) COc1cccc2c1CC(N(CCCc1c[nH]c3ccc(F)cc13)C1CC1)CO2 (stereo not shown)	6.79
2) CCCN(CCCc1c[nH]c2c(OC)cccc12)C1COc2c(F)ccc(C(N)=O)c2C1 (stereo not shown)	7.21
3) NC(=O)c1ccc(F)c2c1OCC(N(CCCCc1c[nH]c3ccc(F)cc13)CC1CC1)C2 (stereo not shown)	6.44
4) CC(C)CN(CCCc1c[nH]c2ccc(F)cc12)C1COc2cccc(C(N)=O)c2C1 (stereo not shown)	6.77
5) NC(=O)c1ccc(F)c2c1CC(NCCCc1c[nH]c3ccc(Cl)cc13)CO2 (stereo not shown)	6.61
6) CCN(CCCc1c[nH]c2c(OC)cccc12)C1COc2c(F)ccc(C(N)=O)c2C1 (stereo not shown)	7.35
7) COC(=O)c1ccc(F)c2c1C[C@H](NCCCCc1c[nH]c3ccc(F)cc13)CO2 [Compound 57a]	6.47
8) COc1cccc2c1CC(N(CCCc1c[nH]c3ccc(F)cc13)C1CCC1)CO2 (stereo not shown)	7.21
9) CCCN(CCc1c[nH]c2ccc(F)cc12)C1CCc2cccc(OC)c2C1 (stereo not shown)	7.46
10) CCCN(CCCc1c[nH]c2ccc(F)cc12)C1CCc2c(F)ccc(OC)c2C1 (single isomer, unassigned; (+)) [Compound 51a]	7.78
11) CCCN(C1COc2cccc(OC)c2C1)[C@H]1CC[C@H](c2c[nH]c3ccc(F)cc32)CC1 (relative stereo)	6.52
12) CCCN(CCCCn1ccc2cc(F)ccc21)C1COc2c(F)ccc(C(N)=O)c2C1 (stereo not shown)	7.17
13) CCCN(C(C)CCc1c[nH]c2ccc(F)cc12)C1COc2c(F)ccc(C(N)=O)c2C1 (single isomer, unassigned) [Compound 12b]	7.20
14) CCCN(CCCc1c[nH]c2c(F)cc(F)cc12)C1COc2c(C(N)=O)ccc(F)c2C1 (stereo not shown)	6.15
15) CCN(CCCc1c[nH]c2ccc(F)cc12)C1COc2cccc(OC)c2C1 (stereo not shown)	7.58
16) CCN(CCCCn1ccc2c(F)cccc21)C1COc2c(F)ccc(C(N)=O)c2C1 (stereo not shown)	6.68

* * *

# SUBJECT_OF_TEST: cloned human 5-HT1A receptors (Homo sapiens)
# Construct: expressed in transfected cells
# PROCEDURE_TEXT: 35S-GTPγS binding assay, 5-HT1A function
# Format: biochemical
# COND: antagonist potency, reversal of 8-OH-DPAT; read-out: 5-HT1A Function GTPγS IC50
EXPERIMENTAL_READOUT: IC50 (nM)

1) CC(CCc1c[nH]c2c(F)cc(F)cc12)N(CC1CC1)C1COc2c(F)ccc(C(N)=O)c2C1 (single isomer, unassigned) [Compound 154c]	1990
2) COc1cccc2c1CC(N[C@H]1CC[C@H](c3c[nH]c4ccc(F)cc43)CC1)CO2 (relative stereo) [Compound 181b]	115
3) NC(=O)c1ccc(F)c2c1CC(N(CCCCn1ccc3cc(F)ccc31)C1CCC1)CO2 (stereo not shown)	1110
4) CCN(CCCc1c[nH]c2ccc(Cl)cc12)C1COc2c(F)ccc(C(N)=O)c2C1 (stereo not shown)	1990

* * *

Ki listing for selected compounds.
# SUBJECT_OF_TEST: serotonin transporter (Rattus norvegicus, UniProt P31652)
# Construct: displace ^3H-paroxetine from male rat cortical membranes; from tissue; host or cells: male rat cortical membranes
# Sequence (P31652 whole entry): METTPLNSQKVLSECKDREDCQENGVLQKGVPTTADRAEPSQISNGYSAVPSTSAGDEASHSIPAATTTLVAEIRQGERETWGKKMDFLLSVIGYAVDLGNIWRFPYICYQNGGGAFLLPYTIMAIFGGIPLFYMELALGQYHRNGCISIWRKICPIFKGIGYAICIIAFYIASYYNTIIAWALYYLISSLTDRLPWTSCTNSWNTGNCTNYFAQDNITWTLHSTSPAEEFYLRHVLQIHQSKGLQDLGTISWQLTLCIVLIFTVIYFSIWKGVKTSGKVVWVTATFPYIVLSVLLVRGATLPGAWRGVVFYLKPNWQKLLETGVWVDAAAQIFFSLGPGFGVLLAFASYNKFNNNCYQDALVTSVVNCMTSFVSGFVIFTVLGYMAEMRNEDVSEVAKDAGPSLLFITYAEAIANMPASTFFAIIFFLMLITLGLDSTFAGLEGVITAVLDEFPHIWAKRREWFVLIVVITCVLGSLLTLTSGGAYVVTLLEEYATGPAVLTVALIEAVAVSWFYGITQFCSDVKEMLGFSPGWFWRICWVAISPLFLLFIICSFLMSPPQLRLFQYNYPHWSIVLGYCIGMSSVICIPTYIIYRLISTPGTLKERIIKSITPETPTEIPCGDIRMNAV
# PROCEDURE_TEXT: 5-HT transporter affinity: displacement of 3H-paroxetine from male rat cortical membranes
# Format: binding
# COND: displacement of 3H-paroxetine; male rat cortical membranes; read-out: 5-HT Transporter Affinity Ki
EXPERIMENTAL_READOUT: Ki (nM)

1. CCCN(CCCc1c[nH]c2c(OC)cccc12)C1COc2c(F)ccc(C(N)=O)c2C1 (centres unmarked) [Compound 100]	141
2. CCCCN(CCCc1coc2c(OC)cccc12)C1COc2c(F)ccc(C(N)=O)c2C1 (centres unmarked) [Compound 166]	498
3. CCCN(CCCc1c[nH]c2ccc(F)cc12)C1CCc2cccc(OC)c2C1 (centres unmarked) [Compound 47]	2.16
4. O=C(O)c1cccc2c1CC(N(CCCc1c[nH]c3c(F)cc(F)cc13)C1CCC1)CO2 (centres unmarked) [Compound 137]	421
5. O=C(NCC1CC1)c1ccc(F)c2c1CC(N(CCCc1c[nH]c3ccc(F)cc13)C1CCC1)CO2 (centres unmarked) [Compound 68]	4.4
6. NC(=O)c1cccc2c1C[C@@H](NCCCc1c[nH]c3ccc(F)cc13)CO2 [Compound 133b]	43.2
7. COc1cccc2c1CC(N(CCCc1cn(C)c3ccc(F)cc13)CC1CC1)CO2 (centres unmarked) [Compound 38]	29
8. NC(=O)c1cccc2c1CC(N(CCCc1c[nH]c3ccc(F)cc13)C1CCC1)CO2 (single isomer, unassigned; (+)) [Compound 134b]	7.2
9. CCN(CCCc1c[nH]c2ccc(F)cc12)C1COc2c(F)ccc(C(N)=O)c2C1 (single isomer, unassigned; (-)) [Compound 3a]	5
10. COC(=O)c1ccc(F)c2c1CC(N(CCCc1c[nH]c3ccc(F)cc13)C1CCC1)CO2 (centres unmarked) [Compound 11]	161
11. COc1cccc2c(CCCNC3COc4c(F)ccc(C(N)=O)c4C3)coc12 (centres unmarked) [Compound 161]	234
12. COc1cccc2c1CC(N(CCCc1c[nH]c3ccc(F)cc13)CC1CC1)CO2 (centres unmarked) [Compound 37]	4.3
13. CNC(=O)c1ccc(F)c2c1CC(N(CCCc1c[nH]c3ccc(F)cc13)CC1CC1)CO2 (centres unmarked) [Compound 91]	3.33
14. CCCN(CCCc1c[nH]c2ccc(F)cc12)C1COc2c(C(N)=O)ccc(F)c2C1 (centres unmarked) [Compound 120]	22.5
15. COc1cccc2c(CCCN(C3CCC3)C3COc4c(F)ccc(C(N)=O)c4C3)c[nH]c12 (centres unmarked) [Compound 102]	1110
16. CCN(C(C)CCc1c[nH]c2ccc(F)cc12)C1COc2c(F)ccc(C(N)=O)c2C1 (single isomer, unassigned; (+)) [Compound 16b]	0.95
17. COC(=O)c1ccc(F)c2c1C[C@H](NCCCCc1c[nH]c3ccc(F)cc13)CO2 [Compound 57a]	4.21
18. COc1cccc2c(CCCCNC3COc4c(F)ccc(C(N)=O)c4C3)coc12 (centres unmarked) [Compound 167]	44.9
19. CCCN(C(C)CCc1c[nH]c2ccc(C#N)cc12)C1COc2c(F)ccc(C(N)=O)c2C1 (single isomer, unassigned) [Compound 13c]	118
20. O=C(NC1CCCC1)c1ccc(F)c2c1CC(N(CCCc1c[nH]c3ccc(F)cc13)C1CCC1)CO2 (centres unmarked) [Compound 66]	5.65
21. CCCN(CCCc1c[nH]c2ccc(F)cc12)[C@H]1COc2c(F)ccc(OC)c2C1 [Compound 28]	17.5
22. CCCN(CCCCc1c[nH]c2ccc(F)cc12)C1COc2c(F)ccc(C(=O)NC)c2C1 (centres unmarked) [Compound 93]	2.49
23. CCN(CCCc1coc2c(OC)cccc12)C1COc2c(F)ccc(C(N)=O)c2C1 (centres unmarked) [Compound 162]	61.5
24. CN(C)C(=O)c1ccc(F)c2c1CC(N(CCCc1c[nH]c3ccc(F)cc13)C1CCC1)CO2 (centres unmarked) [Compound 73]	28.8
25. NC(=O)c1ccc(F)c2c1CC(N(CCCCn1ccc3ccc(F)cc31)C1CCC1)CO2 (centres unmarked) [Compound 196]	124
26. CCCN(CCCc1c[nH]c2ccc(F)cc12)C1COc2c(F)ccc(C(N)=O)c2C1 (centres unmarked) [Compound 2]	6
27. N#Cc1ccc2[nH]cc(CCCN(C3CCC3)[C@H]3COc4c(F)ccc(C(N)=O)c4C3)c2c1 [Compound 97b]	2.44
28. NC(=O)c1cccc2c1CC(N(CCCc1c[nH]c3ccc(F)cc13)C1CCC1)CO2 (centres unmarked) [Compound 134]	8.67
29. CC(C)NC(=O)c1ccc(F)c2c1CC(N(CCCc1c[nH]c3ccc(F)cc13)C1CCC1)CO2 (centres unmarked) [Compound 63]	3.56
30. CCN(CCCc1csc2ccccc12)C1COc2cccc(OC)c2C1 (centres unmarked) [Compound 18]	127
31. COc1cccc2c1CC(N(C)CCCc1c[nH]c3ccc(F)cc13)CO2 (centres unmarked) [Compound 33]	6.8
32. COc1cccc2c(CCCN(CC3CC3)C3COc4c(F)ccc(C(N)=O)c4C3)c[nH]c12 (centres unmarked) [Compound 103]	976
